meta.source: patent US20200157194A1

System tested: T1, human GREM1 (hGREM1-His; SEQ ID NO: 595) (human, UniProt O60565 25-184)
T1 construct: also called biotin-hGREM1-His; recombinant human GREM1 protein
T1 sequence: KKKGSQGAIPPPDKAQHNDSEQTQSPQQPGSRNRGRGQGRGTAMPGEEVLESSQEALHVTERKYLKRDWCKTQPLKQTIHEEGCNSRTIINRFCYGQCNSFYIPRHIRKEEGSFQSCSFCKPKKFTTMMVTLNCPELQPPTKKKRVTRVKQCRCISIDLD
Protocol details: SPR, Biacore T200, 37 C, mAb captured, hGREM1-His injected;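 further: HBS-EP running buffer containing heparin, association and dissociation phases tracked, KD computed as koff over kon and half-life derived from koff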
Measure name: t1/2 (min)
Use min as the unit, but write only the number.

Binder	t1/2, min
H4H2889N (antibody, human IgG4, V domains shown, H4H prefix = human IgG4 Fc) VH: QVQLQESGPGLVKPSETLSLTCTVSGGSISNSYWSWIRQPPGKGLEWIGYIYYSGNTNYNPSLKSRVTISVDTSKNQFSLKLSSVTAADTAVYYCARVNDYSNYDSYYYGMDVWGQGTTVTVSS VL: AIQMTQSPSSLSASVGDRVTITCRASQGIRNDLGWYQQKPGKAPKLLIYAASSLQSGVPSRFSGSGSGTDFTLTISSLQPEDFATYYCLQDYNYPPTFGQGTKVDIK	27

Please examine the following record next.
Can you share its t1/2? I mean this binder: H4H6256P (antibody, human IgG4, V domains shown, H4H prefix = human IgG4 Fc) VH: QVQLVESGGGVVQPGRSLRLSCAASGFTFSAYGMHWVRQGPGKGLEWVAVIWYDGSNKYYADSVKGRFTISRDNSKNTLYLQMNRLRAEDTAVYYCARDDYGDSPGFDHWGQGTLVTVSS VL: EIVMTQSPATLSVSPGERATLSCRASQSVSSELAWYQQKPGQAPRLLLYGASTRATGIPARFSGSGSGTEFTLTISSLQSEDFAVYYCQQYSNWPPWTFGQGTKVEIK
25
